Reference source: patent US20180258158A1

SYSTEM UNDER TEST: T1, human serum albumin (HSA), full length (human, UniProt P02768 25-609)
T1 construct: mature; Immobilized on CM5 chip (SPR) or coated on plates (ELISA)
T1 sequence (P02768 25-609): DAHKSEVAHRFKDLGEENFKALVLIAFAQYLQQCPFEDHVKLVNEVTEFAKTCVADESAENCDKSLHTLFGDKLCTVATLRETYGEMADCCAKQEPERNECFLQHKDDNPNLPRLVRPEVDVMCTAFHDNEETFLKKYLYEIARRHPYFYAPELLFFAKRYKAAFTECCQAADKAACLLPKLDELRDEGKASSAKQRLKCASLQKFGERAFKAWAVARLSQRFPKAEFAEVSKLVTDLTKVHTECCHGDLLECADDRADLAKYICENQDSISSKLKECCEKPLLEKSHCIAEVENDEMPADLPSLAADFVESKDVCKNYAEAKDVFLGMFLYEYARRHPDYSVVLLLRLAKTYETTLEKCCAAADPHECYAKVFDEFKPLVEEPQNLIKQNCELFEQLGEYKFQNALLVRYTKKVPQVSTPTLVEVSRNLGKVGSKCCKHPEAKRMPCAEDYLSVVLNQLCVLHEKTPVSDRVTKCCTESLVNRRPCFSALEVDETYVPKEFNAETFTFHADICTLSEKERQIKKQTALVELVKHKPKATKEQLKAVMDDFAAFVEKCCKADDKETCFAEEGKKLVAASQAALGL
PROTOCOL: direct binding ELISA, coated HSA, anti-His-HRP
Design: unit not given here
ENDPOINT NAME: HSA DB ELISA (OD450) Ymax obs

>>> value("ADX_6727_B09 (L38T/K85T) (designed binder, Full His6-tagged entry) MGVSDVPRDLEVVAATPTSLLISWDAPAVTVRYYRITYGREVQKYSDTGPLYIYQEFTVPGSKSTATISGLKPGVDYTITVYAVTGSGESPASSTPISINYRTEIDKPSQHHHHHH")
16
>>> value("ADX_6727_C01 (K85A) (designed binder, Full His6-tagged entry) MGVSDVPRDLEVVAATPTSLLISWDAPAVTVRYYRITYGREVQKYSDLGPLYIYQEFTVPGSKSTATISGLKPGVDYTITVYAVTGSGESPASSAPISINYRTEIDKPSQHHHHHH")
98
>>> value("ADX_6727_F06 (L41A/K85T) (designed binder, Full His6-tagged entry) MGVSDVPRDLEVVAATPTSLLISWDAPAVTVRYYRITYGREVQKYSDLGPAYIYQEFTVPGSKSTATISGLKPGVDYTITVYAVTGSGESPASSTPISINYRTEIDKPSQHHHHHH")
90
>>> value("ADX_6727_D01 (K85T) (designed binder, Full His6-tagged entry) MGVSDVPRDLEVVAATPTSLLISWDAPAVTVRYYRITYGREVQKYSDLGPLYIYQEFTVPGSKSTATISGLKPGVDYTITVYAVTGSGESPASSTPISINYRTEIDKPSQHHHHHH")
97
